Source: patent US7799824B2

Target: CCR2 (Homo sapiens, UniProt P41597)
Assay: MCP-1 Receptor Binding Assay in THP-1 Cells
Conditions: MCP-1 binding to CCR2; test concentration of 25 μM, unless indicated otherwise; read-out: % Inhibition Ligand Binding
Can you tell me inhibition at 25 µM for the items I'm about to list?
Answer with the figure and its unit, nothing else.

Consider the following illustrative entries.
>  <compound>
C[N+](C)(Cc1cccc(NC(=O)c2cccc(Br)c2)c1)C1CCOCC1

>  <readout.type>
inhibition at 25 µM

>  <observed.value>
34%

$$$$
>  <compound>
C[N+](C)(Cc1ccc(CNC(=O)C2=Cc3c(ccc4ccccc34)OC2)cc1)C1CCOCC1

>  <readout.type>
inhibition at 25 µM

>  <observed.value>
-21%

$$$$
>  <compound>
C[N+]1(Cc2ccc(NC(=O)C=Cc3ccc(Cl)c(Cl)c3)cc2)CCOCC1

>  <readout.type>
inhibition at 25 µM

>  <observed.value>
20%

$$$$
>  <compound>
C[N+](C)(Cc1ccc(NC(=O)c2cccc(Cl)c2Cl)cc1)C1CCCCC1

>  <readout.type>
inhibition at 25 µM

>  <observed.value>
53%

$$$$
>  <compound>
C[N+](C)(Cc1ccc(NC(=O)C2=Cc3c(F)cccc3OC2)cc1)C1CCCCC1

>  <readout.type>
inhibition at 25 µM

>  <observed.value>
100%

$$$$
>  <compound>
C[N+](C)(Cc1cccc(NC(=O)c2cccc(C(F)(F)F)c2)c1)C1CCOCC1

>  <readout.type>
inhibition at 25 µM

>  <observed.value>
61%

$$$$
>  <compound>
CCC[N+](C)(Cc1ccc(NC(=O)c2ccc3ccccc3c2)cc1)C1CCOCC1 (stereo not drawn)

>  <readout.type>
inhibition at 25 µM

>  <observed.value>
54%

$$$$
>  <compound>
C[N+](C)(Cc1ccc(NC(=O)c2c(Cl)cccc2Cl)cc1)C1CCOCC1

>  <readout.type>
inhibition at 25 µM

>  <observed.value>
38%

$$$$

// assay CCR2 (Homo sapiens, UniProt P41597), entry `C[N+](C)(Cc1ccc(NC(=O)C2=Cc3cc(C(F)(F)F)ccc3OC2)cc1)C1CCCCC1` , inhibition at 25 µM value = 100%

###

Molecular target: CCR2 (Homo sapiens, UniProt P41597)
Assay: MCP-1 Receptor Binding Assay in THP-1 Cells
Details: THP-1 cells, 0.5 nM 125I labeled MCP-1, 2 hours at 30° C.; read-out: Mean Ligand Binding IC50 (inhibition of MCP-1 binding to CCR2)
readout.type: pIC50
Numbers only, as −log10 of the molar value.

Consider the following illustrative entries.
>  <molecule>
Cc1ccc(-c2cccc(C(=O)Nc3ccc(C[N+](C)(C)C4CCCCC4)cc3)c2)cc1

>  <readout.type>
pIC50

>  <observed.value>
5.22

$$$$
>  <molecule>
C[N+](C)(Cc1ccc(NC(=O)C2=Cc3cc(Cl)c(Cl)cc3OCC2)cc1)C1CC2CCC1C2 (stereo not shown)

>  <readout.type>
pIC50

>  <observed.value>
6.62

$$$$
>  <molecule>
Cc1cc(Cl)cc2c1OCC(C(=O)Nc1ccc(C[N+](C)(C)C3CC4CCC3C4)cc1)=C2 (stereo not shown)

>  <readout.type>
pIC50

>  <observed.value>
6.92

$$$$
>  <molecule>
C[N+](C)(Cc1ccc(NC(=O)C2=Cc3cc(Cl)ccc3OC2)cc1)C1CCCCC1

>  <readout.type>
pIC50

>  <observed.value>
6.57

$$$$
>  <molecule>
C[N+](C)(Cc1ccc(NC(=O)C2=Cc3cc(Cl)c(Cl)cc3OCC2)cc1)C1CCOCC1

>  <readout.type>
pIC50

>  <observed.value>
6.62

$$$$
>  <molecule>
C[N+](C)(Cc1ccc(CNC(=O)c2cccc(C(F)(F)F)c2)cc1)C1CCCCC1

>  <readout.type>
pIC50

>  <observed.value>
5.37

$$$$
>  <molecule>
Cn1c(C(=O)Nc2ccc(C[N+](C)(C)C3CCCCC3)cc2)cc2ccccc21

>  <readout.type>
pIC50

>  <observed.value>
6.21

$$$$
>  <molecule>
Cc1ccc2c(c1)C=C(C(=O)Nc1ccc(C[N+](C)(C)C3CCOCC3)cc1)CO2

>  <readout.type>
pIC50

>  <observed.value>
6.09

$$$$

Please state, for each entry, its recorded pIC50.
1. C[N+](C)(Cc1ccc(NC(=O)C2=Cc3cc(Cl)ccc3OC2)cc1)C1CCOCC1
2. C[N+](C)(CCc1ccc(NC(=O)c2cccc(Br)c2)cc1)C1CCOCC1
3. C[N+](C)(Cc1ccc(NC(=O)C2=Cc3cc(Cl)cc(Cl)c3OC2)cc1)C1CCCCC1
4. C[N+](C)(Cc1ccc(NC(=O)c2ccc(Cl)c(Cl)c2)cc1)C1CCSC1 (stereo not shown)
5. C[N+](C)(Cc1ccc(NC(=O)C2=Cc3c(ccc4ccccc34)OC2)cc1)C1CCSCC1
6. C[N+](C)(Cc1ccc(NC(=O)C2=Cc3ccccc3CCC2)cc1)C1CCOCC1

1. 6.96
2. 4.99
3. 6.77
4. 8.30
5. 5.62
6. 5.92

Please state, for each entry, its recorded pIC50.
1. C[N+](C)(Cc1ccc(NC(=O)c2ccnc(Cl)c2)cc1)C1CCOCC1
2. C[N+](C)(Cc1ccc(NC(=O)C2=Cc3cc(Cl)c(Cl)cc3OCC2)cc1)C1CCCCC1
3. Cc1ccc(C(=O)Nc2ccc(C[N+](C)(C)C3CCCCC3)cc2)cc1Cl
4. C[N+](C)(Cc1ccc(NC(=O)C2=Cc3ccc(Cl)c(Cl)c3OC2)cc1)C1CCCCC1
5. C[N+](C)(Cc1ccc(NC(=O)C=Cc2ccc(Br)cc2)cc1)C1CCOCC1
6. C[N+](C)(Cc1cccc(NC(=O)C=Cc2cccc(Br)c2)c1)C1CCOCC1
7. C[N+](C)(Cc1ccc(NC(=O)C2=Cc3cc(Cl)ccc3OC2)cc1)C[C@@H]1CCCO1

1. 5.09
2. 6.00
3. 7.52
4. 6.22
5. 5.43
6. 5.30
7. 5.28

###

Biological target: CCR2 (Homo sapiens, UniProt P41597)
Sequence (P41597 1-360 isoform P41597-2): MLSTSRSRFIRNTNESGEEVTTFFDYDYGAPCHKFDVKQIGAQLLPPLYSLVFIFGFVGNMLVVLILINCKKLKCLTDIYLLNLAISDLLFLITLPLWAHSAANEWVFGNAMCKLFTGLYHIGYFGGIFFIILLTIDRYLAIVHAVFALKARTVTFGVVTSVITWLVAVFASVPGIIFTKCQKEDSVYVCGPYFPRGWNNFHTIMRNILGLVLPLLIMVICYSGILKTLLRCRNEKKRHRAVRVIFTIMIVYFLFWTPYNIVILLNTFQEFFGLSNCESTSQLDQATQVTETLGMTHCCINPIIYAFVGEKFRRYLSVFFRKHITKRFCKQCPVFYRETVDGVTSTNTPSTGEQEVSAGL
Assay: MCP-1 Receptor Binding Assay in THP-1 Cells
Settings: THP-1 cells, 0.5 nM 125I labeled MCP-1, 2 hours at 30° C.; read-out: Mean Ligand Binding IC50 (inhibition of MCP-1 binding to CCR2)
readout.type: pIC50
Numbers only, as −log10 of the molar value.

>  <mol>
C[N+]1(Cc2ccc(NC(=O)C3=Cc4c(ccc5ccccc45)OC3)cc2)CCOCC1

>  <pIC50>
5.01

$$$$
>  <mol>
C[N+]1(Cc2ccc(NC(=O)C=Cc3cccc(Br)c3)cc2)CCOCC1

>  <pIC50>
5.57

$$$$
>  <mol>
C[N+](C)(Cc1ccc(NC(=O)c2cc3cc(Cl)ccc3[nH]2)cc1)C[C@@H]1CCCO1

>  <pIC50>
5.48

$$$$

Let us examine a further case.
pIC50 reading for `C[N+](C)(Cc1ccc(NC(=O)c2cc(-c3ccc(Cl)cc3)oc2C(F)(F)F)cc1)C1CCCCC1` : 5.34

###

Target: UniProtKB P41597
Assay: MCP-1 Receptor Binding Assay in THP-1 Cells
Settings: THP-1 cells, 0.5 nM 125I labeled MCP-1, 2 hours at 30° C.; read-out: Mean Ligand Binding IC50 (inhibition of MCP-1 binding to CCR2)
pIC50: −log10 of the molar value.
Use 1.0 when the recorded pIC50 is no lower than 6; use 0.0 when it is lower.

>  <molecule>
C[N+]1(Cc2ccc(CNC(=O)C=Cc3ccc(Cl)c(Cl)c3)cc2)CCCCC1

>  <measured.target>
UniProtKB P41597

>  <label.value>
0.0

$$$$
>  <molecule>
COc1ccc2c(c1)C=C(C(=O)Nc1ccc(C[N+](C)(C)C3CCOCC3)cc1)CO2

>  <measured.target>
UniProtKB P41597

>  <label.value>
0.0

$$$$
>  <molecule>
C[N+](C)(Cc1ccc(NC(=O)c2cc3cc(Br)ccc3[nH]2)cc1)C1CCOCC1

>  <measured.target>
UniProtKB P41597

>  <label.value>
1.0

$$$$
>  <molecule>
C[N+](C)(Cc1ccc(NC(=O)C2=Cc3cc(Cl)cc(Cl)c3OC2)cc1)C1CC2CCC1C2 (centres unmarked)

>  <measured.target>
UniProtKB P41597

>  <label.value>
0.0

$$$$
>  <molecule>
C[N+](C)(Cc1ccc(NC(=O)C2=Cc3cc(Cl)cc(Cl)c3OC2)cc1)C1CCSC1 (centres unmarked)

>  <measured.target>
UniProtKB P41597

>  <label.value>
1.0

$$$$

Answer whether pIC50 of CC[N+](C)(Cc1ccc(NC(=O)c2ccc(Cl)c(Cl)c2)cc1)C1CCOCC1 (centres unmarked) is greater than or equal to 6.
1.0

Answer whether pIC50 of CC[N+](C)(Cc1ccc(NC(=O)c2ccc3ccccc3c2)cc1)C1CCOCC1 (centres unmarked) is greater than or equal to 6.
0.0

Answer whether pIC50 of `C[N+](C)(Cc1ccc(NC(=O)c2ccc(Cl)c(Cl)c2)cc1)C[C@@H]1CCCO1` is greater than or equal to 6.
0.0
